The reported numbers originate from patent US20240376214A1.

target-system: T1, human c-Met (HGFR), full length, on the cell surface (human, UniProt P08581 25-1390)
T1 construct: Endogenous c-Met on human tumor cell lines MKN45, NCI-H596, PC-3 and HepG2; also called hepatocyte growth factor receptor; mesenchymal-epithelial transition factor
T1 sequence (P08581 25-1390 limits assumed): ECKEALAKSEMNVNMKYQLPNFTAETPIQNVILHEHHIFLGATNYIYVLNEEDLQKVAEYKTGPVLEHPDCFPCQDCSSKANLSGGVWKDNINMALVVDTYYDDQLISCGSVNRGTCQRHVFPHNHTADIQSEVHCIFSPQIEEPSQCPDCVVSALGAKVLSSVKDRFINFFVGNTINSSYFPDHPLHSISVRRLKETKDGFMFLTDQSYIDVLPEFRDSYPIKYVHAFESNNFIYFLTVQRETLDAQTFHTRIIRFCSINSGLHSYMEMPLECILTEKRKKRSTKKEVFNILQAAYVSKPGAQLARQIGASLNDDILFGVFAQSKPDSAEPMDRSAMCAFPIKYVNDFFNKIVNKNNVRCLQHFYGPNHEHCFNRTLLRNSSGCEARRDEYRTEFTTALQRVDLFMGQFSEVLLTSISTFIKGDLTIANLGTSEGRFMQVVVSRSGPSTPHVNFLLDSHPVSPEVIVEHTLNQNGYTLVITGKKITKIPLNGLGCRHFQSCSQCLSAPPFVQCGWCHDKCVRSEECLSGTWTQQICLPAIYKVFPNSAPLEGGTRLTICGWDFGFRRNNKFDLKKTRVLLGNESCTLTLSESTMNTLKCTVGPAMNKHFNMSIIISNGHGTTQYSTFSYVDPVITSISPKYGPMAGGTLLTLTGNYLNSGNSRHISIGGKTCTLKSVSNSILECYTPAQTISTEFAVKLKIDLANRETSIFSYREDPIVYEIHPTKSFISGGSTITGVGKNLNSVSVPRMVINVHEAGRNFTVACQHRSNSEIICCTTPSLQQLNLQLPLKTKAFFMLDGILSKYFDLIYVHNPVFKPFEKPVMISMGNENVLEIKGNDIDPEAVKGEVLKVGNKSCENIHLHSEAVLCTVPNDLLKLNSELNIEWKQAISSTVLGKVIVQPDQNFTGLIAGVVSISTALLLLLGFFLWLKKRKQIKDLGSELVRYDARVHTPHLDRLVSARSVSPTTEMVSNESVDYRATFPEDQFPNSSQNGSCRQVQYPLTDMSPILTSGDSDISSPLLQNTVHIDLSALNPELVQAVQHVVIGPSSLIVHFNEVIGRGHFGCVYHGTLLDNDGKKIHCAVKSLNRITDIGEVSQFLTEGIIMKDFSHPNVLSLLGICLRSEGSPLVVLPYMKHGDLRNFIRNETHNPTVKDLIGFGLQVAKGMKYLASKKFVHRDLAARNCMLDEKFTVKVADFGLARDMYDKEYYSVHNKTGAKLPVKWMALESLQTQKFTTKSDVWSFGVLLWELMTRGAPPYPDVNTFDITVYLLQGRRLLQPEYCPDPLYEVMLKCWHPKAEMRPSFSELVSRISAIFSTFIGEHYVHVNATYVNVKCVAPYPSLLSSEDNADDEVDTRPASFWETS
test-name: flow cytometry, PC-3 cells pre-incubated with 50 ng/mL HGF
From the text: Cellular binding of the in total 75 humanized anti-c-Met antibodies (originating from the three selected chimeric antibodies) was studied in human c-Met-positive tumor cell lines MKN45, NCI-H596 and PC-3, rhesus c-Met-positive tumor cell line 4 MBr-5, and human c-Met-negative tumor cell line MDA-MB-175-VII. […] For analysis of the data, the Median Fluorescence Intensity (MFI) values were obtained.
endpoint: EC50 (µg/mL)
Kindly answer with a numeric value in µg/mL, unit omitted.

Here are 2 binders together with their reported answers.
binder	unit-name	EC50
mAb2b (antibody, human IgG1, kappa, V domains shown, Humanized IgG1 kappa, HC-41C, from wt/41C-chi-mAb2; also called humanized HC-41C antibody mAb2b) VH: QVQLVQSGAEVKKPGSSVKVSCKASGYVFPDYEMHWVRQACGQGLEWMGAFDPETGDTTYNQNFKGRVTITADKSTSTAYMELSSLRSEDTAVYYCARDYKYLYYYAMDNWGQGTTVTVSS VL: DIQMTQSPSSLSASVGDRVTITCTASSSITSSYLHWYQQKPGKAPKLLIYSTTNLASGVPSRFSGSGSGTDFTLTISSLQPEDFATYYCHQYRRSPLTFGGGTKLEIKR	µg/mL	0.13
mAb2a (antibody, human IgG1, kappa, V domains shown, Humanized IgG1 kappa, HC-41C, from wt/41C-chi-mAb2; also called humanized HC-41C antibody mAb2a) VH: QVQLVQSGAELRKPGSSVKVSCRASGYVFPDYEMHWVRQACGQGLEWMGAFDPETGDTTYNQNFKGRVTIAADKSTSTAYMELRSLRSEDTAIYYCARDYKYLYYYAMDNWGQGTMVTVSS VL: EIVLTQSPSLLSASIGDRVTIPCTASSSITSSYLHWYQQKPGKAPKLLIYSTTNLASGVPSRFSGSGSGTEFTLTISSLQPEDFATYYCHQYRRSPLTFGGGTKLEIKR	µg/mL	0.09

Data request: Entry mAb3b (antibody, human IgG1, kappa, V domains shown, Humanized IgG1 kappa, HC-41C, from wt/41C-chi-mAb3; also called humanized HC-41C antibody mAb3b) VH: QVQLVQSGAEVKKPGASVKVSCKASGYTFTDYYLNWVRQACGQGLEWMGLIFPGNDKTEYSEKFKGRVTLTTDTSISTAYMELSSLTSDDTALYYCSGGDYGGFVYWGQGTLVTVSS VL: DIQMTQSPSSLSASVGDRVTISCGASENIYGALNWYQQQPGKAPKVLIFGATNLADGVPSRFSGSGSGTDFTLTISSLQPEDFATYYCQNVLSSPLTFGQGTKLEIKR : reported EC50 = ?
Data returned: 0.06
